- Test system: Escherichia coli TOP10;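 further: peptides expressed intracellularly from a pBAD plasmid library in pooled LB shake-flask culture, induced with 0.3% L-arabinose, DNA abundance read by NGS, three biological replicates, DESeq2 with apeglm shrinkage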
- EXPERIMENTAL_DETAILS: shrunken log2 fold change of peptide-encoding DNA abundance (4.5 h post-induction vs induction); higher = less antimicrobial activity (less host growth inhibition)
- COND: time post-induction: 4.5 h; library: site-saturation at positions 5, 18, 19, 20
Kind request: treat 0.01 as inclusive, so shrunken log2 fold change at 0.01 or higher is t, anything lower is f.

Recorded results for 6 sequences are shown here.
[
  {
    "CHAIN_SEQUENCE": "RRIRCRPPRLPRPRPRPCWLPRP",
    "TEST_SYSTEM": "Escherichia coli TOP10",
    "CLASS_ASSIGNMENT": "f"
  },
  {
    "CHAIN_SEQUENCE": "RRIRQRPPRLPRPRPRPNPDPRP",
    "TEST_SYSTEM": "Escherichia coli TOP10",
    "CLASS_ASSIGNMENT": "f"
  },
  {
    "CHAIN_SEQUENCE": "RRIRLRPPRLPRPRPRPYYMPRP",
    "TEST_SYSTEM": "Escherichia coli TOP10",
    "CLASS_ASSIGNMENT": "f"
  },
  {
    "CHAIN_SEQUENCE": "RRIRTRPPRLPRPRPRPSNHPRP",
    "TEST_SYSTEM": "Escherichia coli TOP10",
    "CLASS_ASSIGNMENT": "f"
  },
  {
    "CHAIN_SEQUENCE": "RRIRSRPPRLPRPRPRPCKSPRP",
    "TEST_SYSTEM": "Escherichia coli TOP10",
    "CLASS_ASSIGNMENT": "f"
  },
  {
    "CHAIN_SEQUENCE": "RRIRFRPPRLPRPRPRPWDEPRP",
    "TEST_SYSTEM": "Escherichia coli TOP10",
    "CLASS_ASSIGNMENT": "f"
  }
]

API: above_or_equal(metric=shrunken log2 fold change, cutoff=0.01) for item RRIRGRPPRLPRPRPRPLHTPRP
t
